Protocol Details: Cell activity (MTT) after treatment with acetaldehyde alone
Type: cell-based
Experimental Context: human, ca9-22 cells; Acetaldehyde 0.02M, 1 day, T/NT
Quantity Kind: viability at 24 h, 20000 µM (%)
A number alone suffices; assume %.

Query: Please supply the value of reported viability at 24 h, 20000 µM for the item CC=O
Response: 70

###

Protocol Details: Cell activity (MTT) after treatment with acetaldehyde alone
Type: cell-based
Experimental Context: human, ca9-22 cells; Acetaldehyde 0.01M, 1 day, T/NT
Source text: The absorbance of each well at 550nm was detected by a microplate reader. […] NT was taken as 100%, and the ratio of T/NT of the sample well was taken as the cell activity, the results of which are shown in Table 3. On the basis of meeting the requirements of significant difference, the greater the cell activity %, the better the effect of inhibiting cell damage caused by acetaldehyde. Table 3 Cell activity results
Quantity Kind: viability at 24 h, 10000 µM
Param answer (str): number followed by unit.

Query: Please supply the value of reported viability at 24 h, 10000 µM for the item CC=O [Acetaldehyde, acetaldehyde]
Response: 89%

###

Protocol Details: in vitro
Experimental Context: human, ca9-22 cells, Cell activity
Quantity Kind: viability at 24 h (%)
A number alone suffices; assume %.

Query: Please supply the value of reported viability at 24 h for the item CC1=NC(C(=O)O)CCN1 (stereo not shown)
Response: 112

###

Protocol Details: Cell activity (MTT) after treatment with acetaldehyde alone
Assay type: cell-based
Experimental Context: human, ca9-22 cells; Acetaldehyde 0.0001M, 1 day, T/NT
From the text: The absorbance of each well at 550nm was detected by a microplate reader. […] NT was taken as 100%, and the ratio of T/NT of the sample well was taken as the cell activity, the results of which are shown in Table 3. On the basis of meeting the requirements of significant difference, the greater the cell activity %, the better the effect of inhibiting cell damage caused by acetaldehyde. Table 3 Cell activity results
Quantity Kind: viability at 24 h, 100 µM

Query: Please supply the value of reported viability at 24 h, 100 µM for the item CC=O
Response: 96%

###

Protocol Details: Cell activity (MTT) after treatment with acetaldehyde alone
Assay type: cell-based
Experimental Context: human, ca9-22 cells; Acetaldehyde 0.001M, 1 day, T/NT
Quantity Kind: viability at 24 h, 1000 µM (%)
A number alone suffices; assume %.

Query: Please supply the value of reported viability at 24 h, 1000 µM for the item CC=O [Acetaldehyde, acetaldehyde]
Response: 93

###

Protocol Details: Cell activity (MTT) after treatment with acetaldehyde alone
Assay type: cell-based
Experimental Context: human, ca9-22 cells; Acetaldehyde 0.005M, 1 day, T/NT
Quantity Kind: viability at 24 h, 5000 µM (%)
A number alone suffices; assume %.

Query: Please supply the value of reported viability at 24 h, 5000 µM for the item CC=O
Response: 93

Where these numbers come from: patent EP4643860A1
